# procedure_summary: sensitizers of A549 cells to miR-34 induction, primary screen, imaging, A549 dox-inducible miR-34, nuclei and caspase counts (AID 1347080)
# settings: A549 miR-34 inducible, Hoechst nuclei count, 48 h; measured here: relative caspase fold change +Dox/-Dox
measured_quantity: fold change
One number for each entry.

The cases that follow already have their fold change on record.
{"compound": "O=C(CCC/C=C\\C[C@@H]1[C@@H](/C=C/[C@@H](O)COc2cccc(C(F)(F)F)c2)[C@H](O)C[C@@H]1O)NC(CO)CO", "fold change": 0.862}
{"compound": "COc1ccc2c(c1)[C@]13CCCCC1C(C2)N(C)CC3 (some centres undefined)", "fold change": 1.91}
{"compound": "CN1CCC[C@@H]1Cc1c[nH]c2ccc(Nc3ncccc3[N+](=O)[O-])cc12", "fold change": 1.84}

# batch: return fold change for each of the 6 compounds below
1. COc1cc(OC)c(OC)cc1C=O
2. CCCn1c(C)c(C(=O)c2cccc3ccccc23)c2ccccc21
3. CCOP(=S)(OCC)Oc1ccc2c(C)c(Cl)c(=O)oc2c1
4. C[N+](C)(C)CCOC(=O)CBr
5. Cc1nc(-c2ccccn2)nc(NCCc2ccccc2)c1Cl
6. CC1[C@H](C)OC(=O)CC(O)CC(O)CC(O)CCC(O)C(O)C[C@]2(O)CC(O)C(C(=O)O)C(CC(OC3O[C@H](C)[C@@H](O)[C@H](N)[C@@H]3O)/C=C/C=C/C=C/C=C/CC/C=C/C=C/[C@H](C)[C@H]1O)O2 (some centres undefined)

Response:
1. 0.878
2. 1.38
3. 1.03
4. 2.27
5. 0.693
6. 0.89

====

# procedure_summary: stimulators of nuclear beta-catenin in C2C12, primary screen, imaging, WNT3A-conditioned medium, mouse C2C12, NPC library (AID 1117326); also: reference of the scale not given here
# settings: at 10 µM, stronger effect = higher value
measured_quantity: nuclear beta-catenin stimulation (%)
Numbers only, in %.

The cases that follow already have their nuclear beta-catenin stimulation on record.
{"compound": "O=c1[nH]c2ccccc2n1C1CCNCC1", "nuclear beta-catenin stimulation, %": 0.8}
{"compound": "COc1ccc(Cc2nccc3cc(OC)c(OC)cc23)cc1OC", "nuclear beta-catenin stimulation, %": 1.4}
{"compound": "O=C(O)c1ccc2[nH]cc(CCCCN3CC=C(c4ccccc4)CC3)c2c1", "nuclear beta-catenin stimulation, %": -0.5}
{"compound": "CCOC(=O)NC(O)C(Cl)(Cl)Cl (centres undefined)", "nuclear beta-catenin stimulation, %": -0.2}
{"compound": "CCN(CC)N(O)N=O", "nuclear beta-catenin stimulation, %": -1.2}

# batch: return nuclear beta-catenin stimulation for each of the 2 compounds below
1. COC(=O)c1ccccc1C(=O)OC
2. CC(C)(C)CC(C)(C)c1ccc(O)cc1

Response:
-1.6
-1.8

# batch: return nuclear beta-catenin stimulation for each of the 3 compounds below
1. CC(C)NCC(O)c1ccc([N+](=O)[O-])cc1 (centres undefined)
2. S=C(SSC(=S)N1CCCCC1)N1CCCCC1
3. COP(=S)(OC)Oc1ccc(S(N)(=O)=O)cc1

Response:
1: -2.4; 2: 1.8; 3: 0.4

# batch: return nuclear beta-catenin stimulation for each of the 4 compounds below
1. c1ccc2c(c1)Nc1ccccc1S2
2. COP(=S)(OC)Oc1ccc(S(=O)(=O)N(C)C)cc1
3. CC(=O)Nc1cc([As](=O)(O)O)ccc1O
4. NCc1cccnc1

Response:
[-1.5, -1.9, 4.8, 0.8]
